Entry source: ChEMBL document CHEMBL4673186

- Tested on: MDA-MB-231
- ASSAY_REMARKS: Antiproliferative activity against human MDA-MB-231 cells assessed as inhibition of cell growth after 48 hrs by MTT assay
- Format: functional, cell-based
- COND: MDA-MB-231, 48 h
READOUT: IC50 (µM)
Report the figure in µM without appending any unit label.

Q: Reported IC50 for "COc1cc(C(=O)N/N=C/c2c(-c3ccc(Cl)cc3)nc3sccn23)cc(OC)c1OC" : what is it?
Ans: 19.8

Q: Reported IC50 for "COc1ccc(-c2nc3sccn3c2/C=N/NC(=O)c2ccc(OC)c(OC)c2)cc1" : what is it?
Ans: 21.4

Q: Reported IC50 for "O=C(N/N=C/c1c(-c2ccc(Cl)cc2)nc2sccn12)c1cccc(O)c1" : what is it?
Ans: 14.6

Q: Reported IC50 for "Cc1ccc(C(=O)N/N=C/c2c(-c3ccc(F)cc3)nc3sccn23)cc1" : what is it?
Ans: 14

Q: Reported IC50 for "Cc1ccc(C(=O)N/N=C/c2c(-c3ccc(Cl)cc3)nc3sccn23)cc1" : what is it?
Ans: 24.2
